All figures here come from PubChem BioAssay AID1445.

Catalogue of compounds with associated inhibition
Tested On: Aminopeptidase N (Plasmodium falciparum (isolate 3D7)) (UniProt O96935)
Sequence (O96935 whole entry, looked up): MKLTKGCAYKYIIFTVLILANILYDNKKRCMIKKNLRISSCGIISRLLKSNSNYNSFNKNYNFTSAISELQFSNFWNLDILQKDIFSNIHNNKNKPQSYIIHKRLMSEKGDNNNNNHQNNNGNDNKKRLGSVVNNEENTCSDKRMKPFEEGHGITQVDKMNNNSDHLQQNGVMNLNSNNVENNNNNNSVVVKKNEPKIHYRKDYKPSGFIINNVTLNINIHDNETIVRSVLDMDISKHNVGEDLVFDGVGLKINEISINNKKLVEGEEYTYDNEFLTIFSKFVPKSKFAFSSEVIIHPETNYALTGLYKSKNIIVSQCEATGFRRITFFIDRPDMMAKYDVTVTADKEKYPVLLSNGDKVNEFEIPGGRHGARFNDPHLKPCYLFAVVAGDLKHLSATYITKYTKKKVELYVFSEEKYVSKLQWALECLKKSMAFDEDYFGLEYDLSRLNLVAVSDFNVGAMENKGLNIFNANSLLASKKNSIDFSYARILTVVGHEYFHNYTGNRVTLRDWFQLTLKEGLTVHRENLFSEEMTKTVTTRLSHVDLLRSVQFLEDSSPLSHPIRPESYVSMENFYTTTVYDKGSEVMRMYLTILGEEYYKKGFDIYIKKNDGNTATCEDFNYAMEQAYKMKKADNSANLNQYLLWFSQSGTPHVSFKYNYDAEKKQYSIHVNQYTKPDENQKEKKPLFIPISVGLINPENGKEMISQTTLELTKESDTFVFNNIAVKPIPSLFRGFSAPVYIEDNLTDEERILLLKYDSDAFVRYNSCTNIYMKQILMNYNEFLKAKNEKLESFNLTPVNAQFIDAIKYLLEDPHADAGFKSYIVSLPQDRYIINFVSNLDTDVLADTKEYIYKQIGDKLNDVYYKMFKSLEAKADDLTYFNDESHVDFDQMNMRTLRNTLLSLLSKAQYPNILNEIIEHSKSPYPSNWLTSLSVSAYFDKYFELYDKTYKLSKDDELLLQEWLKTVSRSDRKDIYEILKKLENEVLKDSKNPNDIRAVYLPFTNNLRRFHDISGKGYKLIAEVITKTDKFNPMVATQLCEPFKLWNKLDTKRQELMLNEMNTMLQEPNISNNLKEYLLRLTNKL
Protocol Description: malaria alanyl aminopeptidase activity blockers – biochemical, fluorogenic H-Leu-NHMec substrate, 1536-well (AID 1445);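 also: plate controls were DMSO full reaction for no effect and no enzyme background for full effect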
Conditions Used: recombinant M1AAP, H-Leu-NHMec fluorogenic kinetic assay; at 30 µM, stronger effect = higher value unless noted
Out of some 220,000 compounds screened, about 910 (0.41%) were called active. Only a selection was taken, and actives are over-represented in it overall. Measured potencies and affinities stand elsewhere.
// note: answer is a bare numeric in %

For orientation, consider the following solved cases.
O=c1[nH]c(N2CCOCC2)nc2c1CCCC2    15.6
O=C1/C(=C/Nc2cccc([N+](=O)[O-])c2)CCc2ccccc21    9.22

Turning now to a further record.
Tell us which inhibition value is on record for COc1ccccc1C(=O)Nc1ccccc1C(=O)N1CCCC1
5.88
